Value source: paper PMC7414093

experiment: in vitro; settings: human, microsomes, pH 7.4
measured_property: half-life (min)

{"compound": "O=C(c1ccc(Cl)cc1Cl)N1CCO[C@@H](c2ccccc2)C1 [F0045(S)]", "measured_property": "half-life", "reported_value": 40.8}

* * *

test system: H1N1 virus expressing A/Solomon Islands/3/2006 (H1/SI06); test: microbe, parasite or virus in culture; type: cell-based, influenza A virus; details: Influenza A virus, H1N1, 72 h, read-out: EC50, virus neutralization

{"molecule": "O=C(c1ccc(Cl)cc1Cl)N1CCO[C@@H](c2ccccc2)C1 [F0045(S)]", "target_under_test": "H1N1 virus expressing A/Solomon Islands/3/2006 (H1/SI06)", "EC50": "> 150 µM"}
